The reported numbers originate from patent US20150011751A1.

pIC50: −log10 of the molar value.
The listing below reports pIC50 for compounds tested on Dephosphorylated BTK (Homo sapiens).
assay readout: pIC50

Examples with answers:
compound	pIC50
Nc1nc(Nc2ccc(O)cc2)nc(-c2cccc(NC(=O)c3cc4c(s3)CCCC4)c2CO)n1 [Example 136]	8.89
Cn1cc(Nc2nc(N)nc(-c3cccc(N4CCc5cc(C6CC6)cc(F)c5C4=O)c3CO)n2)cc1C(N)=O [Example 251]	9.40

A: CC(C)(C)c1ccc(C(=O)Nc2cccc(-c3nc(N)nc(Nc4ccc5[nH]c(C(F)(F)F)nc5c4)n3)c2CO)cc1 [Example 187]
B: Nc1nc(Nc2ccc(Cn3ccnc3)cc2)nc(-c2cccc(NC(=O)c3cc4c(s3)CCCC4)c2CO)n1 [Example 133]
C: CC(C)(CO)c1ccc(C(=O)Nc2cccc(-c3nc(N)nc(Nc4ccc(N5CCOCC5)cc4)n3)c2CO)cc1 [Example 201]
D: CC(C)(C)c1ccc(C(=O)Nc2cccc(-c3nc(N)nc(Nc4ccc5c(c4)OCC(=O)N5)n3)c2CO)cc1 [Example 154]
Incoming: List the 4 entries from lowest pIC50 to highest pIC50 value. List the labels, following the order given in the request.
Outgoing: A, C, D, B

###

# system: Dephosphorylated BTK (Homo sapiens, UniProt Q06187)
# Sequence (Q06187 whole entry): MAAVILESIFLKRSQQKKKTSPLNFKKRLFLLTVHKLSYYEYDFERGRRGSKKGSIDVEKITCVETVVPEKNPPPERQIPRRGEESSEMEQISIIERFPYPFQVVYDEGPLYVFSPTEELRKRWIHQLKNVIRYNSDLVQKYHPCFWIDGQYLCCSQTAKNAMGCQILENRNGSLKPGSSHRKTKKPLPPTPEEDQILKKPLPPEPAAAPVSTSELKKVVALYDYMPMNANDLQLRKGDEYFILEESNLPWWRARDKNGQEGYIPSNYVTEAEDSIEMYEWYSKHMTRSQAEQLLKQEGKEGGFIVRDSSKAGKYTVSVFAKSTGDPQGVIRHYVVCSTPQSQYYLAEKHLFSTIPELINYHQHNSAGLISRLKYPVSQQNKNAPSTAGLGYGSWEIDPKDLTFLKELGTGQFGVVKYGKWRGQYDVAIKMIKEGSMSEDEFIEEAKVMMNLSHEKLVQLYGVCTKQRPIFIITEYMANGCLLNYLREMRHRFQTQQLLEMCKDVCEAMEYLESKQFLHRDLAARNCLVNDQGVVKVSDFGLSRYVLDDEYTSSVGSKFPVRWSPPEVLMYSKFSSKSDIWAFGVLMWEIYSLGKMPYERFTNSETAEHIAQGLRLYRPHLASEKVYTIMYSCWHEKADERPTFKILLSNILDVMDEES
assay readout: IC50 (pM)

molecule	quantitative result
CC(C)(C)c1ccc(C(=O)Nc2cccc(-c3nc(N)nc(Nc4ccc5c(c4)ncn5CCCO)n3)c2CO)cc1 [Example 155]	800

A: CC(C)(C)c1ccc(C(=O)Nc2cccc(-c3nc(N)nc(Nc4ccc(C(N)=O)cc4)n3)c2CO)cc1 [Example 149]
B: Nc1nc(Nc2cnn(CCN3CCOCC3)c2)nc(-c2cccc(N3CCc4cc(C5CC5)cc(F)c4C3=O)c2CO)n1 [Example 237]
C: Nc1nc(Nc2ccc(N3CCOCC3)cc2)nc(-c2cccc(NC(=O)c3ccc4c(c3)CCC4)c2CO)n1 [Example 171]
Incoming: Place the items in sequence of falling IC50. List the labels, following the order given in the request.
Outgoing: C, B, A
(C: 26000 pM, B: 800 pM, A: 500 pM)

P: COCCN(CCOC)Cc1ccc(Nc2nc(N)nc(-c3cccc(NC(=O)c4cc5c(s4)CCCC5)c3CO)n2)cc1 [Example 129]
Q: Nc1nc(Nc2ccn([C@H]3CCOC3)c2)nc(-c2cccc(N3CCc4cc(C5CC5)cc(F)c4C3=O)c2CO)n1 [Example 249]
Incoming: # query: argmin of IC50 over P and Q API: response body contains the label of the selected item.
Outgoing: P

###

pIC50: −log10 of the molar value.
The listing below reports pIC50 for compounds tested on Dephosphorylated BTK (Homo sapiens).
assay readout: pIC50

compound	quantitative result
CC(C)(C)c1ccc(C(=O)Nc2cccc(-c3nc(N)nc(Nc4ccc5nc[nH]c5c4)n3)c2CO)cc1	8.72
CC(C)(C)c1ccc(C(=O)Nc2cccc(-c3nc(N)nc(Nc4ccc(S(=O)(=O)N5CCOCC5)cc4)n3)c2CO)cc1	8.89
Cc1c(-c2nc(N)nc(Nc3ccc(C(=O)N4CCOCC4)cc3)n2)cccc1N1Cc2cc(C(C)(C)C)sc2C1=O	8.19
CN1CCN(c2ccc(Nc3nc(N)nc(-c4cccc(N5CCc6cc(C7CC7)cc(F)c6C5=O)c4CO)n3)cc2)CC1	8.96
CC(C)(C)c1cc2c(s1)C(=O)N(c1cccc(-c3nc(N)nc(Nc4ccc(N5CCOCC5)cc4)n3)c1CO)C2	8.89
CC(C)(C)c1ccc(C(=O)Nc2cccc(-c3nc(N)nc(Nc4ccc(-n5ccnc5)cc4)n3)c2CO)cc1	8.92

P: CC(C)(C)c1ccc(C(=O)Nc2cccc(-c3nc(N)nc(Nc4ccc(Cn5cccn5)cc4)n3)c2CO)cc1
Q: CC1CCc2sc(C(=O)Nc3cccc(-c4nc(N)nc(Nc5ccc(N6CCOCC6)cc5)n4)c3CO)cc2C1 (centres unmarked)
Incoming: Which shows the larger pIC50 value: P or Q ? API: response body contains the label of the selected item.
Outgoing: P

1: CC(C)(C)c1ccc(C(=O)Nc2cccc(-c3nc(N)nc(Nc4ccc(CN5CCOCC5)cc4)n3)c2CO)cc1
2: Nc1nc(Nc2ccc(N3CCNCC3)cc2)nc(-c2cccc(NC(=O)c3cc4c(s3)CCCC4)c2CO)n1
3: Nc1nc(Nc2ccc(Cc3nnn[nH]3)cc2)nc(-c2cccc(N3CCc4cc(C5CC5)cc(F)c4C3=O)c2CO)n1
Incoming: Place the items in sequence of falling pIC50. List the labels, following the order given in the request.
Outgoing: 2, 1, 3
(2: 9.52, 1: 9.22, 3: 8.43)

P: CC(C)(C)c1ccc(C(=O)Nc2cccc(-c3nc(N)nc(Nc4cn[nH]c4)n3)c2CO)cc1
Q: Cc1c(NC(=O)c2ccc(C(C)(C)C)cc2)cccc1-c1ncnc(Nc2ccc(N3CCOCC3)cc2)n1
Incoming: # query: argmin of pIC50 over P and Q API: response body contains the label of the selected item.
Outgoing: Q
(Q: 8.47, P: 9.15)

###

# system: Dephosphorylated BTK (Homo sapiens)
# experiment summary: Test of activity inhibition against dephosphorylated BTK (mobility shift assay)
pIC50: −log10 of the molar value.
assay readout: pIC50

Examples with answers:
molecule	pIC50
Cc1c(NC(=O)c2ccc(C(C)(C)C)cc2)cccc1-c1nc(N)nc(Nc2ccc(N3CCC(N4CCOCC4)CC3)cc2)n1 [Example 80]	8.68
Cc1c(NC(=O)c2ccc(C(C)(C)C)cc2)cccc1-c1ncnc(Nc2ccc(C(=O)NC(CO)CO)cc2)n1 [Example 19]	8.21

A: Cc1c(NC(=O)c2ccc(C(C)(C)C)cc2)cccc1-c1nc(N)nc(Nc2ccc(N3C[C@@H](C)O[C@@H](C)C3)cc2)n1 [Example 85]
B: Nc1nc(Nc2cnn(C3CC3)c2)nc(-c2cccc(N3CCc4cc(C5CC5)cc(F)c4C3=O)c2CO)n1 [Example 238]
Incoming: # query: argmin of pIC50 over A and B API: response body contains the label of the selected item.
Outgoing: A
(A: 8.24, B: 9.05)

###

pIC50: −log10 of the molar value.
The listing below reports pIC50 for compounds tested on Dephosphorylated BTK (Homo sapiens, UniProt Q06187).
assay readout: pIC50

Examples with answers:
compound	pIC50
CN1CCN(C)C(c2ccc(Nc3nc(N)nc(-c4cccc(N5CCc6cc(C7CC7)cc(F)c6C5=O)c4CO)n3)cc2)C1=O (centres unmarked)	8.80
CC1(c2ccc(C(=O)Nc3cccc(-c4nc(N)nc(Nc5ccc(N6CCOCC6)cc5)n4)c3CO)cc2)CC1	9.15
Cc1c(NC(=O)c2ccc(C(C)(C)C)cc2)cccc1-c1nc(N)nc(Nc2ccc(N3CCNCC3)cc2)n1	8.74
CC(=O)Nc1ccc(Nc2nc(N)nc(-c3cccc(NC(=O)c4ccc(C(C)(C)C)cc4)c3CO)n2)cc1	9.10
Nc1nc(Nc2ccc(OC3CCOCC3)c(F)c2)nc(-c2cccc(N3CCc4cc(C5CC5)cc(F)c4C3=O)c2CO)n1	9.05

1: CC(C)(C)c1ccc(C(=O)Nc2cccc(-c3nc(N)nc(Nc4ccc(N5CCOCC5)nc4)n3)c2CO)cc1
2: Nc1nc(Nc2cnn(CCO)c2)nc(-c2cccc(N3CCc4cc(C5CC5)cc(F)c4C3=O)c2CO)n1
3: CC(C)(C)c1ccc(C(=O)Nc2cccc(-c3nc(N)nc(Nc4ccc(CN5CCC(O)CC5)cc4)n3)c2CO)cc1
Incoming: Place the items in sequence of falling pIC50. List the labels, following the order given in the request.
Outgoing: 3, 2, 1

1: Cc1c(NC(=O)c2ccc(C(C)(C)C)cc2)cccc1-c1nc(N)nc(Nc2ccc(N3CCC(O)CC3)cc2)n1
2: Cn1cc(Nc2nc(N)nc(-c3cccc(N4CCc5cc(C6CC6)cc(F)c5C4=O)c3CO)n2)cn1
Incoming: Which shows the larger pIC50 value: 1 or 2 ? API: response body contains the label of the selected item.
Outgoing: 2
(2: 9.15, 1: 8.85)

###

# system: Dephosphorylated BTK (Homo sapiens)
pIC50: −log10 of the molar value.
assay readout: pIC50

Examples with answers:
molecule	assay readout	quantitative result
Cc1c(NC(=O)c2ccc(C(C)(C)C)cc2)cccc1-c1nc(N)nc(Nc2ccc(N3CCN(CCO)CC3)cc2)n1 [Example 93]	pIC50	8.89
Nc1nc(Nc2ccc(Cn3cccn3)cc2)nc(-c2cccc(N3CCc4cc(C5CC5)cc(F)c4C3=O)c2CO)n1 [Example 50]	pIC50	9.00
Nc1nc(Nc2cnn(CC(F)F)c2)nc(-c2cccc(N3CCc4cc(C5CC5)cc(F)c4C3=O)c2CO)n1 [Example 275]	pIC50	8.77
CC(C)(C)c1ccc(C(=O)Nc2cccc(-c3nc(N)nc(Nc4ccc(-c5nn[nH]n5)cc4)n3)c2CO)cc1 [Example 202]	pIC50	8.89
COCCOc1ccc(Nc2nc(N)nc(-c3cccc(NC(=O)c4ccc(C(C)(C)C)cc4)c3CO)n2)cc1OCCOC [Example 90]	pIC50	9.15
CC(C)(C)c1ccc(C(=O)Nc2cccc(-c3nc(N)nc(Nc4ccc(N5CCNCC5)cc4)n3)c2CO)cc1 [Example 126]	pIC50	9.30
CC(C)(C)c1ccc(C(=O)Nc2cccc(-c3nc(N)nc(Nc4ccc(NS(C)(=O)=O)cc4)n3)c2CO)cc1 [Example 112]	pIC50	8.96
CC(C)(C)c1ccc(C(=O)Nc2cccc(-c3nc(N)nc(Nc4ccc(OCCO)cc4)n3)c2CO)cc1 [Example 184]	pIC50	9.10
Nc1nc(Nc2ccc(N3CCOCC3)cc2)nc(-c2cccc(NC(=O)c3ccc4c(c3)CCCC4)c2CO)n1 [Example 102]	pIC50	8.06
Nc1nc(Nc2ccc(N3CCOCC3)cc2)nc(-c2cccc(N3CCc4c(sc5c4CCCC5)C3=O)c2CO)n1 [Example 227]	pIC50	8.46

A: CN1CCN(C)C(c2ccc(Nc3nc(N)nc(-c4cccc(NC(=O)c5cc6c(s5)CCCC6)c4CO)n3)cc2)C1=O (centres unmarked) [Example 130]
B: Nc1nc(Nc2cnn([C@H]3CCOC3)c2)nc(-c2cccc(N3CCc4cc(C5CC5)cc(F)c4C3=O)c2CO)n1 [Example 235]
Incoming: Which shows the larger pIC50 value: A or B ? API: response body contains the label of the selected item.
Outgoing: A

P: CC(C1CC1)n1cc(Nc2nc(N)nc(-c3cccc(N4CCc5cc(C6CC6)cc(F)c5C4=O)c3CO)n2)cn1 (centres unmarked) [Example 270]
Q: CC(C)n1ccc(Nc2nc(N)nc(-c3cccc(N4CCc5cc(C6CC6)cc(F)c5C4=O)c3CO)n2)c1 [Example 229]
Incoming: # query: argmin of pIC50 over P and Q API: response body contains the label of the selected item.
Outgoing: Q

P: CC(C)(C)n1cc(Nc2nc(N)nc(-c3cccc(N4CCc5cc(C6CC6)cc(F)c5C4=O)c3CO)n2)cn1 [Example 241]
Q: CN(CCO)c1ccc(Nc2nc(N)nc(-c3cccc(N4CCc5cc(C6CC6)cc(F)c5C4=O)c3CO)n2)cc1 [Example 246]
R: CN1CCn2cc(Nc3nc(N)nc(-c4cccc(N5CCc6cc(C7CC7)cc(F)c6C5=O)c4CO)n3)cc2C1=O [Example 268]
Incoming: List the 3 entries from lowest pIC50 to highest pIC50 value. List the labels, following the order given in the request.
Outgoing: Q, R, P
(Q: 8.57, R: 8.92, P: 9.22)

I: COCCOc1ccc(Nc2nc(N)nc(-c3cccc(NC(=O)c4cc5c(s4)CCCC5)c3CO)n2)cc1OCCOC [Example 131]
II: CC(C)(C)c1ccc(C(=O)Nc2cccc(-c3nc(N)nc(Nc4ccc(N5CCCC(O)C5)cc4)n3)c2CO)cc1 (centres unmarked) [Example 125]
Incoming: # query: argmin of pIC50 over I and II API: response body contains the label of the selected item.
Outgoing: II

a: Nc1nc(Nc2ccc(CN3CCOCC3)cc2)nc(-c2cccc(NC(=O)c3cc4c(s3)CCCC4)c2CO)n1 [Example 132]
b: Nc1nc(Nc2cccc(Cn3cncn3)c2)nc(-c2cccc(N3CCc4cc(C5CC5)cc(F)c4C3=O)c2CO)n1 [Example 51]
c: Nc1nc(Nc2cnn([C@@H]3CCOC3)c2)nc(-c2cccc(N3CCc4cc(C5CC5)cc(F)c4C3=O)c2CO)n1 [Example 236]
d: Cc1c(NC(=O)c2ccc(C(C)(C)C)cc2)cccc1-c1ncnc(Nc2ccc(CN3CCOCC3)cc2)n1 [Example 25]
Incoming: Place the items in sequence of falling pIC50. List the labels, following the order given in the request.
Outgoing: a, c, b, d
(a: 9.30, c: 9.10, b: 8.70, d: 8.46)

A: CC(C)(C)c1ccc(C(=O)Nc2cccc(-c3nc(N)nc(Nc4ccc(N5CCOC5=O)cc4)n3)c2CO)cc1 [Example 156]
B: Nc1nc(Nc2cccc(N3CCOCC3)c2)nc(-c2cccc(N3CCc4cc(C5CC5)cc(F)c4C3=O)c2CO)n1 [Example 243]
C: Cc1c(NC(=O)c2ccc(C(C)(C)C)cc2)cccc1-c1ncnc(Nc2ccc(C(=O)N3CCN(C)CC3)cc2)n1 [Example 4]
D: NC(=O)Cn1cc(Nc2nc(N)nc(-c3cccc(N4CCc5cc(C6CC6)cc(F)c5C4=O)c3CO)n2)cn1 [Example 266]
Incoming: List the 4 entries from lowest pIC50 to highest pIC50 value. List the labels, following the order given in the request.
Outgoing: C, B, D, A

A: CNC(=O)c1cc(Nc2nc(N)nc(-c3cccc(N4CCc5cc(C6CC6)cc(F)c5C4=O)c3CO)n2)cn1C [Example 232]
B: Cc1c(NC(=O)c2ccc(C(C)(C)C)cc2)cccc1-c1ncnc(Nc2ccc(C(=O)N3CCC(O)CC3)cc2)n1 [Example 9]
Incoming: # query: argmin of pIC50 over A and B API: response body contains the label of the selected item.
Outgoing: B
